The origin of these recorded values is paper PMC5772648.

- TARGET DESC: NUDT5 in HL-60 cells (Homo sapiens, UniProt Q9UKK9)
- Construct: endogenous in cells
- PROCEDURE SUMMARY: isothermal dose-response fingerprint CETSA (ITDRFCETSA)
- SETUP CONDITIONS: 20 to 0.06 µM, read-out: ITDRFCETSA apparent EC50
QUANTITY: pEC50
As a rule, pEC50 stands for the negative log10 of the concentration, concentration in M.

### Prompt GET /values?readout=pEC50&item= Cn1c(=O)c2c(nc(N3CCNCC3)n2Cc2nnc(-c3ccc(Cl)c(Cl)c3)o2)n(C)c1=O
### Response 5.68

---

In this section we review reported IC50 values for a set of molecules.
- TARGET DESC: human NUDT5 (Homo sapiens)
- Construct: His-tag (N); made in house; host or cells: E. coli BL21 (DE3) R3 pRARE2
- PROCEDURE SUMMARY: enzyme-coupled malachite green assay (MG assay), ADPR hydrolysis
- Format: biochemical
- SETUP CONDITIONS: NUDT5, ADPR substrate; read-out: MG assay IC50

{"MOLECULE": "O=C(O)/C=C/c1ccc(O)cc1 [p-coumaric acid, reference compound]", "OBSERVED": "> 100 µM"}

### Prompt GET /values?readout=IC50&item= O=c1cc(N2CCOCC2)oc2c(-c3ccccc3)cccc12 [LY294002, reference compound]
### Response > 100 µM

### Prompt GET /values?readout=IC50&item= O=c1cc(-c2ccccc2)oc2ccccc12 [flavone, reference compound]
### Response > 100 µM

### Prompt GET /values?readout=IC50&item= COc1ccc2c(c[n+](C)c3c4cc5c(cc4ccc23)OCO5)c1OC [chelerythrine, reference compound]
### Response > 100 µM

### Prompt GET /values?readout=IC50&item= Cc1cccc(-c2nnc(Cn3cnc4c3c(=O)n(C)c(=O)n4C)o2)c1
### Response 0.58 µM
